For each entry below, report its pIC50 value.
# assay target: IGFR-1 (Homo sapiens, UniProt P08069)
# Construct: Kinases are expressed as either kinase domains or full length constructs; made in house
# Sequence (P08069 31-1367): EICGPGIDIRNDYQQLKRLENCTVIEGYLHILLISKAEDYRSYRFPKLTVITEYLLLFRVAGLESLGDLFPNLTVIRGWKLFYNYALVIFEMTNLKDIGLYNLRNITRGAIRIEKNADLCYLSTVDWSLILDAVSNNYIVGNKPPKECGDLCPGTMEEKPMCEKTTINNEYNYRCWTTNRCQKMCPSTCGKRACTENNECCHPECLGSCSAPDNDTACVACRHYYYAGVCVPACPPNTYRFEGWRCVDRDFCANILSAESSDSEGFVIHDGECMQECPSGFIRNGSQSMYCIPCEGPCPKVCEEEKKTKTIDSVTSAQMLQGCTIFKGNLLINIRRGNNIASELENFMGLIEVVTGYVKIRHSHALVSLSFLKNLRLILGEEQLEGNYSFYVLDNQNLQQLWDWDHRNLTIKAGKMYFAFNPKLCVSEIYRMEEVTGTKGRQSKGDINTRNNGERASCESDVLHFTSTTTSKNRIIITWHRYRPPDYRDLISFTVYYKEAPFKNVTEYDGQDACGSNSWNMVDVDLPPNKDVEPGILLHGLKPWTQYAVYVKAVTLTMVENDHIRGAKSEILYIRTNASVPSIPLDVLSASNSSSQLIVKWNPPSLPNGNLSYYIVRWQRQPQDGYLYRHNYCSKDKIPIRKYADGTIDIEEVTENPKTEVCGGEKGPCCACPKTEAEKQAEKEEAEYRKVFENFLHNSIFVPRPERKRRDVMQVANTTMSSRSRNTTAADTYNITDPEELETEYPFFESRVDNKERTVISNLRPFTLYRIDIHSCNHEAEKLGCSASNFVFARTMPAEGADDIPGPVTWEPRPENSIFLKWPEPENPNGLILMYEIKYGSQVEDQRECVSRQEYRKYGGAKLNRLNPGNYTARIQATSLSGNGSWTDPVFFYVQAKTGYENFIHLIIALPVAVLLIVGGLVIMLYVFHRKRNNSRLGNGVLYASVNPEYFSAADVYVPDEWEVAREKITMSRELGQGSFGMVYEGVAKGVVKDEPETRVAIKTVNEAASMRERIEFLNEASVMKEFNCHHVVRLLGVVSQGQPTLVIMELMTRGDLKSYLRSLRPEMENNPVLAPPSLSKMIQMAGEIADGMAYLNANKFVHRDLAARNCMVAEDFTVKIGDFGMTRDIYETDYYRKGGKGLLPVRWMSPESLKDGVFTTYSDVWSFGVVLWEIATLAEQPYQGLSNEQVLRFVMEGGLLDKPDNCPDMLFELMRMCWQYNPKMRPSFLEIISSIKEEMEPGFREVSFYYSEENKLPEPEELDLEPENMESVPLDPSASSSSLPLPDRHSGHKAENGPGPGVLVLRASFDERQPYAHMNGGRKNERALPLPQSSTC
# test protocol: Kinase inhibition assay (33P transfer), IGFR-1
# Type: biochemical
# condition label: Table 2, class symbols A-E
pIC50: −log10 of the molar value.

Give reported pIC50 value for "COc1cc(Nc2ncnc(-c3cccnc3Nc3cccc4c3CCCC4)n2)cc(OC)c1OC" < 5.03

Give reported pIC50 value for "COc1cc(Nc2ncnc(-c3cccnc3Nc3ccc(C(C)=O)cc3)n2)cc(OC)c1OC" < 5.02

Give reported pIC50 value for "FC(F)(F)Oc1ccc(Nc2ncnc(Nc3ccc4c(cnn4Cc4ccccc4)c3)n2)cc1" 5.13 to 5.30

Give reported pIC50 value for "COc1ccc(Nc2ncnc(NCc3ncc(C(F)(F)F)cc3Cl)n2)cc1OC" < 4.99

Give reported pIC50 value for "O=C(O)CNC(=O)c1ccc(Nc2ncnc(Nc3cc(-c4ccco4)[nH]n3)n2)cc1" 5.24 to 6.02

Give reported pIC50 value for "CN(c1cccc(Cl)c1)c1ncnc(Nc2ccc3nn(C)cc3c2)n1" 5.02 to 5.18

Give reported pIC50 value for "COc1ccc(N(C)c2ncnc(Nc3ccc(OC)c(OC)c3)n2)cc1" < 4.91

Give reported pIC50 value for "COc1cc(Nc2ncnc(-c3cccnc3Nc3cccc(C#N)c3)n2)cc(OC)c1OC" < 5.01

Give reported pIC50 value for "COc1ccc(Nc2ncnc(N(C)CCc3ccccn3)n2)cc1OC" < 4.91

Give reported pIC50 value for "COc1ccc(Nc2ncnc(Nc3ccc4c(c3)C(=O)OC4)n2)cc1OC" < 4.93

Give reported pIC50 value for "COC(=O)c1ccc(-c2cc(Nc3ncnc(NCCc4c[nH]c5ccccc45)n3)[nH]n2)cc1" 5.28 to 6.06

Give reported pIC50 value for COc1cc(Nc2ncnc(-c3cccnc3NCC(C)c3ccccc3)n2)cc(OC)c1OC (stereo not drawn) < 5.02

Give reported pIC50 value for "OCc1cccc(Nc2ncnc(-c3cccnc3Nc3ccccc3)n2)c1" < 4.92

Give reported pIC50 value for "COc1cccc(Nc2ncccc2-c2ncnc(Nc3cc(OC)c(OC)c(OC)c3)n2)c1" < 5.01

Give reported pIC50 value for "COC(=O)c1ccc(-c2cc(Nc3ncnc(Nc4cccc(CCC(=O)O)c4)n3)[nH]n2)cc1" > 6.06

Give reported pIC50 value for "FC(F)(F)Sc1cccc(Nc2ncnc(Nc3cc(-c4ccco4)[nH]n3)n2)c1" 5.24 to 6.02

Give reported pIC50 value for "c1ccc(CNc2ncccc2-c2ncnc(Nc3ccc(N4CCOCC4)cc3)n2)cc1" < 4.99

Give reported pIC50 value for "Fc1ccc(CNc2ncnc(Nc3cc(-c4ccco4)n[nH]3)n2)cc1" 5.17 to 5.94

Give reported pIC50 value for "COc1cc(Nc2ncnc(-c3cccnc3NCc3cccc4ccccc34)n2)cc(OC)c1OC" 5.15 to 5.31

Give reported pIC50 value for "O=S(=O)(O)c1cccc(Nc2ncnc(Nc3cc(-c4ccco4)[nH]n3)n2)c1" 5.22 to 6.00

Give reported pIC50 value for "COC(=O)c1ccc(-c2cc(Nc3ncnc(NCCN4CCNC4=O)n3)[nH]n2)cc1" 4.97 to 5.08

Give reported pIC50 value for "CCN(c1ncnc(Nc2cc(OC)c(OC)c(OC)c2)n1)c1cccc2ccccc12" < 4.98

Give reported pIC50 value for "CNS(=O)(=O)Cc1ccc(Nc2ncnc(Nc3cc(-c4ccc(C(=O)OC)cc4)n[nH]3)n2)cc1" 5.15 to 5.31

Give reported pIC50 value for "Cc1ccc(Cl)cc1Nc1ncnc(Nc2cc(Cl)ccc2C)n1" 4.90 to 5.01

Give reported pIC50 value for "COc1cc(Nc2ncnc(-c3cccnc3Nc3ccc(Cl)cc3C)n2)cc(OC)c1OC" < 5.03

Give reported pIC50 value for "Cc1ccc2c(c1)CCCN2c1ncnc(Nc2c(C)ccc3ccccc23)n1" < 4.93

Give reported pIC50 value for "COc1cc(Nc2ncnc(-c3cccnc3Nc3ccccc3C)n2)cc(OC)c1OC" < 4.99
